# Test protocol: AUC (0 to infinity) in NCR nude mouse at 150 mg/kg, po
# Assay type: ADME, organism-based
# Parameters: time infinity, dose 150 mg/kg, route oral
# Condition details: plasma
Measurement label: AUC(0-inf) (µM·h)
Please give a number only; it is taken to be in µM·h.

Task: AUC(0-inf) for "O=C(N[C@H](CO)c1ccc(Cl)c(F)c1)N1CCc2cnc(NC3CCOCC3)nc2C1" ?
Result: 26.7

###

# Test protocol: Half life in NCR nude mouse at 100 mg/kg, po
# Format: ADME, organism-based
# Parameters: dose 100 mg/kg, route oral
# Condition details: in vivo
Measurement label: half-life
Units required after the number.

Task: half-life for "O=C(N[C@H](CO)c1ccc(Cl)c(F)c1)N1CCc2cnc(NC3CCOCC3)nc2C1" ?
Result: 7.5 h

###

Lab note: IC50 readings collected with Mitogen-activated protein kinase 1 (Homo sapiens) for the following compounds.
Sequence (P28482 whole entry): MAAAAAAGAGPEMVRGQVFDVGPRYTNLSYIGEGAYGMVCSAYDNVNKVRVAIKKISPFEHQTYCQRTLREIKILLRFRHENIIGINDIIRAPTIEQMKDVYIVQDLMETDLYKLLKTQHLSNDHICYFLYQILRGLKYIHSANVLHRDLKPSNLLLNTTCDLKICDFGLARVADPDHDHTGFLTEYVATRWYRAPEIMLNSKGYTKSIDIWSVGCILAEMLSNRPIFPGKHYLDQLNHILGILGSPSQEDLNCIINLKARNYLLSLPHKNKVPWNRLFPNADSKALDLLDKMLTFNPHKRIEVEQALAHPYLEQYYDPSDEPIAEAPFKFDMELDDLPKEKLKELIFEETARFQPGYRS
Please give a number only; it is taken to be in µM.

Worked examples follow.
{"columns": ["Smiles repr", "Measurement units", "Numeric value"],
 "data": [
  ["CC(C)(C)Nc1ncc2c(n1)CN(C(=O)N[C@H](CO)c1ccc(F)c(Cl)c1)CC2", "µM", 3.01],
  ["O=C(N[C@H](CO)c1ccc(F)c(Cl)c1)N1CCc2cnc(NC3CCCC3)nc2C1", "µM", 0.33],
  ["Cc1noc(C)c1Nc1ncc2c(n1)CN(C(=O)N[C@H](CO)c1ccc(F)c(Cl)c1)CC2", "µM", 13.2],
  ["CC(=O)Nc1ncc2c(n1)CN(C(=O)N[C@H](CO)c1ccc(F)c(Cl)c1)CC2", "µM", 7.44]
]}

Task: IC50 for "O=C(N[C@H](CO)c1ccc(F)c(Cl)c1)N1CCc2cnc(NCCO)nc2C1" ?
Result: 2.45

Task: IC50 for "C[C@@H](CO)Nc1ncc2c(n1)CN(C(=O)N[C@H](C)c1ccc(Cl)c(Cl)c1)CC2" ?
Result: 0.021

Task: IC50 for "CC(C)Nc1ncc2c(n1)CN(C(=O)NCc1ccc(F)cc1)CC2" ?
Result: 6.62

###

# Test protocol: Oral bioavailability in NCR nude mouse at 150 mg/kg
# Format: ADME, organism-based
# Condition details: in vivo
Measurement label: bioavailability (%)
Please give a number only; it is taken to be in %.

Task: bioavailability for "O=C(N[C@H](CO)c1ccc(Cl)c(F)c1)N1CCc2cnc(NC3CCOCC3)nc2C1" ?
Result: 64

###

# Test protocol: Tmax in cynomolgus monkey at 3 mg/kg, po
# Format: ADME, organism-based, Macaca fascicularis
# Parameters: dose 3 mg/kg, route oral
# Condition details: in vivo
Measurement label: Tmax (h)
Please give a number only; it is taken to be in h.

Task: Tmax for "O=C(N[C@H](CO)c1ccc(Cl)c(F)c1)N1CCc2cnc(NC3CCOCC3)nc2C1" ?
Result: 1.33

###

# Test protocol: Half life in beagle dog at 2 mg/kg, po
# Type: ADME, organism-based, Canis lupus familiaris
# Parameters: dose 2 mg/kg, route oral
# Condition details: in vivo
Measurement label: half-life (min)
Please give a number only; it is taken to be in min.

Task: half-life for "O=C(N[C@H](CO)c1ccc(Cl)c(F)c1)N1CCc2cnc(NC3CCOCC3)nc2C1" ?
Result: 36
